In this section we review reported IC50 values for a set of molecules.
# Subject of test: Recombinant human integrin αvβ5 (Homo sapiens, UniProt P06756+P18084)
# Construct: purchased R&D Systems 2528-AV
# Sequence (P06756 31-992 limits assumed): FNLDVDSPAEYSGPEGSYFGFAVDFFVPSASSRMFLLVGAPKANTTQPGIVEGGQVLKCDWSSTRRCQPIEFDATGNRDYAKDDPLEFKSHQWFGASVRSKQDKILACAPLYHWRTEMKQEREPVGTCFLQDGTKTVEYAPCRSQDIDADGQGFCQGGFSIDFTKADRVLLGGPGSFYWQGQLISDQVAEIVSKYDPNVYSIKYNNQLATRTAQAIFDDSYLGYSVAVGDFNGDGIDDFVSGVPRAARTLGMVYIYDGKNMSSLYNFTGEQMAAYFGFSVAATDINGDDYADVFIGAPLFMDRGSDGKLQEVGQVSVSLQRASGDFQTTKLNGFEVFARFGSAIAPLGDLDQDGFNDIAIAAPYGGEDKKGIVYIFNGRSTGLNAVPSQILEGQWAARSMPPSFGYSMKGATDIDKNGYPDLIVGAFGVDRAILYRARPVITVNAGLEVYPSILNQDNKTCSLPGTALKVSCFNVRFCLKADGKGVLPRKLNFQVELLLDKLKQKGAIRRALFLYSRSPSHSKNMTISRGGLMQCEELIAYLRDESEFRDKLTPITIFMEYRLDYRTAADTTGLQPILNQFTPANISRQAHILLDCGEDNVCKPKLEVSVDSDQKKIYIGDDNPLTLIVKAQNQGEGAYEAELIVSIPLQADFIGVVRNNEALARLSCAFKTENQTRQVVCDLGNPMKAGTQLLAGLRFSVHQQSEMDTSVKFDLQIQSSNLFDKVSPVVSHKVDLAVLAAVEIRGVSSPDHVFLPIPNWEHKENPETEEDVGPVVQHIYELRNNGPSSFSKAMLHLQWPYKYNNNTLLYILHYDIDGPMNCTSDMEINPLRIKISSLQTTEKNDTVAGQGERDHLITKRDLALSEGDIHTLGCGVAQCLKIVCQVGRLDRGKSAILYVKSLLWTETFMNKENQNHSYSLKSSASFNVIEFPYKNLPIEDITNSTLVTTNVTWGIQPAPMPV
# Sequence (P18084 24-719 limits assumed): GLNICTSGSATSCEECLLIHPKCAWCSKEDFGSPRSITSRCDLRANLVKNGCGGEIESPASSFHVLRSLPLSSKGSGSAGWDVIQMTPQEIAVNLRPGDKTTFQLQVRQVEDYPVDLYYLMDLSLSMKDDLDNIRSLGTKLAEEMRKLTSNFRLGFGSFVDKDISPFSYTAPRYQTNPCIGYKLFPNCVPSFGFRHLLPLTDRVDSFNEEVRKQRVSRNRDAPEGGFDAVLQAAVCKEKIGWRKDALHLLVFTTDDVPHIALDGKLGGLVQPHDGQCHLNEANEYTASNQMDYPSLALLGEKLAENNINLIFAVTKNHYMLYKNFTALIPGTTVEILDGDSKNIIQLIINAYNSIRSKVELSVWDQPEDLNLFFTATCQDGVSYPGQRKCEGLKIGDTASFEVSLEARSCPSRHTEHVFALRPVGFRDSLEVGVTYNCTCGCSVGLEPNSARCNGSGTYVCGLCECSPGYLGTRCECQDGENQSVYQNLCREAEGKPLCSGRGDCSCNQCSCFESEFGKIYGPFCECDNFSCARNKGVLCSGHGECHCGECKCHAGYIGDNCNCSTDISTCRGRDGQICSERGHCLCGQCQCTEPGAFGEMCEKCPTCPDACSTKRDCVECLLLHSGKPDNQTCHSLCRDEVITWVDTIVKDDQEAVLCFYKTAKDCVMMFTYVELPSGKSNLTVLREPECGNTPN
# Assay name: Solid Phase Receptor Assay for αvβ5 Function
# Settings: binding to vitronectin-coated plate; read-out: αvβ5 SPRA IC50
Measurement kind: IC50 (nM)

1) CC(C)(c1cc(Cl)cc([C@H](CC(=O)O)NC(=O)CNC(=O)c2cc(O)cc(NC3=NCC(O)CN3)c2)c1)C(F)(F)F (some centres unmarked) [Example 24]: 0.3
2) COCC(C)(C)c1cc(Cl)cc([C@H](CC(=O)O)NC(=O)CNC(=O)c2cc(O)cc(NC3=NCC(O)CN3)c2)c1 (some centres unmarked) [Example 14]: 0.3
3) CC(C)(C)c1cc(Br)cc([C@H](CC(=O)O)NC(=O)CNC(=O)c2cncc(NC3=NCC(O)CN3)c2)c1 (some centres unmarked) [Example 8]: 0.5
4) CC(C)(C#N)c1cc(Br)cc([C@H](CC(=O)O)NC(=O)CNC(=O)c2cc(O)cc(NC3=NCC(O)CN3)c2)c1 (some centres unmarked) [Example 11]: 0.7
5) O=C(O)C[C@H](NC(=O)CNC(=O)c1cc(O)cc(NC2=NCC(O)CN2)c1)c1cc(Cl)cc(C2(CO)CCOCC2)c1 (some centres unmarked) [Example 17]: 0.5
6) O=C(O)C[C@H](NC(=O)CNC(=O)c1cc(O)cc(NC2=NCC(O)CN2)c1)c1cc(Br)cc(C2(C(F)F)CC2)c1 (some centres unmarked) [Example 26]: 0.5
7) CC(C)(O)c1cc([C@H](CC(=O)O)NC(=O)CNC(=O)c2cc(O)cc(NC3=NCC(O)CN3)c2)cc(C(F)(F)F)c1 (some centres unmarked) [Example 13]: 0.3
8) CC(C)(C)c1cc(-c2cccnc2)cc([C@H](CC(=O)O)NC(=O)CNC(=O)c2cc(O)cc(NC3=NCC(O)CN3)c2)c1 (some centres unmarked) [Example 18]: 21
9) CC(O)(c1cc(Cl)cc([C@H](CC(=O)O)NC(=O)CNC(=O)c2cc(O)cc(NC3=NCC(O)CN3)c2)c1)C(F)(F)F (some centres unmarked) [Example 23]: 0.5
10) CC(C)(C)c1cc([C@H](CC(=O)O)NC(=O)CNC(=O)c2cncc(NC(=N)N)c2)cc(C(C)(C)C)c1 [Example 10]: 71
11) CC(C)(C)c1cc(Br)cc([C@H](CC(=O)O)NC(=O)CNC(=O)c2cccc(NC3=NCCN3)c2)c1 [Example 7]: 0.5
12) N#CC1(c2cc(Cl)cc([C@H](CC(=O)O)NC(=O)CNC(=O)c3cc(O)cc(NC4=NCC(O)CN4)c3)c2)CCOCC1 (some centres unmarked) [Example 22]: 0.4
13) CC(C)(C)c1cc(Br)cc([C@H](CC(=O)O)NC(=O)CNC(=O)c2cncc(NC(=N)N)c2)c1 [Example 6]: 2.2
14) CC(C)(CO)c1cc(Cl)cc([C@H](CC(=O)O)NC(=O)CNC(=O)c2cc(O)cc(NC3=NCC(O)CN3)c2)c1 (some centres unmarked) [Example 15]: 0.4
15) CC(C)(O)c1cc(Br)cc([C@H](CC(=O)O)NC(=O)CNC(=O)c2cc(O)cc(NC3=NCC(O)CN3)c2)c1 (some centres unmarked) [Example 3]: 0.7
16) CC(C)(C)c1cc(Br)cc([C@H](CC(=O)O)NC(=O)CNC(=O)c2cccc(NC(=N)N)c2)c1 [Example 5]: 1.6
17) CC(C)(C)c1cc(Br)cc([C@H](CC(=O)O)NC(=O)CNC(=O)c2cc(O)cc(NC3=NCC(O)CN3)c2)c1O (some centres unmarked) [Example 2]: 1
18) CC(C)(O)c1cc(Cl)cc([C@H](CC(=O)O)NC(=O)CNC(=O)c2cc(O)cc(NC3=NCC(O)CN3)c2)c1 (some centres unmarked) [Example 4]: 0.4
19) O=C(O)C[C@H](NC(=O)CNC(=O)c1cc(O)cc(NC2=NCC(O)CN2)c1)c1cc(Cl)cc(C2(CF)CCOCC2)c1 (some centres unmarked) [Example 20]: 0.5
20) CC(C)(C)c1cc(C#N)cc([C@H](CC(=O)O)NC(=O)CNC(=O)c2cc(O)cc(NC3=NCC(O)CN3)c2)c1 (some centres unmarked) [Example 12]: 0.2
